Below, each entry is listed alongside its reported TGI.
System: SK-MEL-28 melanoma
Assay: NCI tumour cell line growth inhibition, 48 h

{"Structure String": "C=C1SC(=Nc2c(C)cc(C)cc2C)N(C(=O)c2sc3ccccc3c2Cl)C12CCCCC2", "TGI": "> 100 µM"}
{"Structure String": "O=C(c1ccc(Cl)cc1)c1ccc(OCCCCCCCCCCOc2ccc(C(=O)c3ccc(Cl)cc3)cc2)cc1", "TGI": "> 100 µM"}
{"Structure String": "CC1(C)CC[C@H](Nc2ncc(C(F)(F)F)c(-c3c[nH]c4c(P(C)(C)=O)c(C#N)ccc34)n2)CN1", "TGI": "9.2 µM"}

`O=C1NC(=O)/C(=C/c2ccc(S(=O)(=O)N/N=C/c3ccc(Cl)cc3)cc2)N1` has a reported TGI of > 100 µM
